test system: Corn; assay: Phytotoxicity Test, corn; settings: 2500 ppm spray, ten days
Metric: Phytotoxicity: Corn

C=CCc1ccc(OC(=O)N(C)SN(C)C(=O)ON=C(C)SC)c(OC)c1 [XXXIII] = 1
CSC(C)=NOC(=O)N(C)SN(C)C(=O)ON=C(C)SCCC#N [X] = 1
CSC(C)=NOC(=O)N(C)SN(C)C(=O)Oc1cccc(N(C)C)c1 [XX] = 1

Recorded result, CSC(C)=NOC(=O)N(C)SN(C)C(=O)Oc1cc(C)c(C)c(C)c1 [XVIII] , Phytotoxicity: Corn: 1

Recorded result, CCCCCCCCCCCCc1ccc(OC(=O)N(C)SN(C)C(=O)ON=C(C)SC)cc1 [XXX] , Phytotoxicity: Corn: 1
